experimental details: qHTS for Inhibitors of human tyrosyl-DNA phosphodiesterase 1 (TDP1): qHTS in cells in absence of CPT; further: nearly all actives have a fitted effect of over 55% in size; further: potency means the concentration at half of the fitted maximal effect
condition context: DT40 Tdp1-/- hTDP1 cells, no CPT, ATP luminescence, 48 h
Out of some 420,000 compounds screened, about 64,000 (15%) were called active. Not shown: some 27% with an inconclusive outcome. A selection follows.
quantity kind: Potency

The following compounds have reported results that may help.
[[record]]
compound = "COC(=O)Cc1c(-c2[nH]c3ccccc3c2CC(=O)OC)[nH]c2ccccc12"
recorded_result = "14.6 µM (active)"

[[record]]
compound = "Cc1nn(Cc2ccccc2)c(C)c1NS(=O)(=O)c1ccccc1"
recorded_result = "inactive"

[[record]]
compound = "Cc1cc(C)c(NC(=O)CN2CCCCCC2)c(C)c1"
recorded_result = "inactive"

[[record]]
compound = "CCOC(=O)c1cn(Cc2cccc(C)c2)nn1"
recorded_result = "inactive"


Form field Potency, entry "COC(=O)Cc1nc2ccccc2[nH]1" : inactive

The measured Potency associated with NC(=O)C1CCN(C2OC(=O)c3ccccc32)CC1 (stereo unspecified) reads inactive

----------
experimental details: qHTS for Inhibitors of human tyrosyl-DNA phosphodiesterase 1 (TDP1): qHTS in cells in absence of CPT; further: nearly all actives have a fitted effect of over 55% in size
condition context: DT40 Tdp1-/- hTDP1 cells, no CPT, ATP luminescence, 48 h
Among all 420,000 compounds or so, about 64,000 (15%) were called active. About 27% were inconclusive and are not listed. The call rests on the fitted dose curve; in most records, active means well fitted inhibition curve with a large enough effect; inconclusive means small, poorly fitted or top-dose-only effect; inactive means flat fitted curve, though single readings scatter. Only a sample is shown. Peptide text beside a SMILES is read from it.
One label from this list, please: 1.0 (active), 0.0 (inactive)

Solved entries (count: 4):
[[record]]
compound = "COc1ccc(C(CNC(=O)c2ccc(S(=O)(=O)Nc3ccccc3C)cc2)N2CCOCC2)cc1 (configuration not stated)"
group = 0.0

[[record]]
compound = "Cc1ccc(NC(=O)CCCNC(=O)c2ccc(Cl)cc2)cc1S(=O)(=O)N1CCOCC1"
group = 0.0

[[record]]
compound = "CCNC(=O)COC(=O)/C=C/c1c(C)nn(Cc2cccc(OC)c2)c1Cl"
group = 0.0

[[record]]
compound = "C=CCC(NCc1ccco1)c1ccc(OC)cc1 (configuration not stated)"
group = 0.0


[Q] Tell me the recorded outcome of this test for "CC1(C)C/C(=C(/C#N)C(N)=O)CCO1" .
[A] 0.0

[Q] Outcome logged for "Cc1ccc(C2=CSC3=NS(=O)(=O)CCN23)cc1C" in this assay:
[A] 0.0

[Q] Look up the recorded call for O=C(NCCO)C(=O)NCC(c1ccc2c(c1)OCO2)N1CCN(c2ccc(F)cc2)CC1 (configuration not stated) in this test.
[A] 0.0

[Q] Kindly provide the recorded test outcome for the following compound: "Cc1ccc(C(=O)Nc2cccc3ncccc23)cc1[N+](=O)[O-]"
[A] 0.0

[Q] Assay result, entry Cc1cc(S(=O)(=O)Nc2ccc(C(=O)NCC(c3ccco3)N3CCCC3)cc2)ccc1F (configuration not stated) — outcome?
[A] 0.0

[Q] Hi team, can someone confirm the assay call for CC(=O)NC(C(=O)NCC(N)=O)C(C)C (configuration not stated) (HELM PEPTIDE1{[ac].[CC(C)C(N[*:1])C(=O)[*:2]].G.[am]}$$$$V2.0) ?
[A] 0.0

----------
experimental details: qHTS for Inhibitors of human tyrosyl-DNA phosphodiesterase 1 (TDP1): qHTS in cells in absence of CPT; further: nearly all actives have a fitted effect of over 55% in size
condition context: DT40 Tdp1-/- hTDP1 cells, no CPT, ATP luminescence, 48 h
Hit rate of the full screen: of about 420,000 compounds, about 64,000 (15%) were called active. Roughly 27% stayed inconclusive and do not appear here. Calls follow the shape of the dose curve; as a rule, active = well fitted inhibition curve with a large enough effect; inconclusive = small, poorly fitted or top-dose-only effect; inactive = flat fitted curve, though single readings scatter. Only a sample is shown.
Entry note: the call must match one of active, inactive

Sample answers from the record:
[[record]]
compound = "O=C(CN1CCCCCC1)NCCN1C(=O)S/C(=C\\c2ccccc2Cl)C1=O"
group = "inactive"

[[record]]
compound = "CC(C)(C)c1ccc(C(=O)C[N+]2(C)CCCc3ccccc32)cc1 (stereo unspecified)"
group = "active"

[[record]]
compound = "C=CCOCCN(C)C1=NS(=O)(=O)c2ccccc21"
group = "inactive"

[[record]]
compound = "CCN(CC)S(=O)(=O)c1ccc(-c2cn3ccc(C)cc3n2)cc1"
group = "inactive"

[[record]]
compound = "CCOc1ccc(NC(=O)N(CC(C)C)CC(C)C)cc1"
group = "inactive"

[[record]]
compound = "Cc1cc(-n2nc(C)cc2C)n2nc(C)c(-c3ccccc3)c2n1"
group = "inactive"


[Q] Tell me the recorded outcome of this test for "COc1ccc(/C=N/N(C)C2=NS(=O)(=O)c3ccccc32)cc1OC" .
[A] inactive

[Q] Fill in: this test's call for "Cc1cc(C(C)(C)C)n2nc(C)c(-c3ccccc3)c2n1" is ___
[A] inactive

[Q] Which result was noted for this compound in the test: "CCOc1ccc(NC(=O)c2ncoc2-c2ccco2)cc1"
[A] inactive

[Q] Recorded test call requested for "COc1ccc(NC(=O)CCN2C(=O)/C(=C/c3ccc4c(c3)OCO4)SC2=S)cc1"
[A] inactive

[Q] In this assay, the call recorded for "O=C1/C(=C\c2ccccc2Cl)SC(=S)N1CCC(=O)N1CCCc2ccccc21" was what?
[A] active
